System: phospho-ERK1/2 (Thr202/Tyr204) in MIA PaCa-2 cell line
assay-overview: pERK and ERK Western blot analysis, MIA PaCa-2
Type: cell-based
measurement-setup: Homo sapiens; MIA PaCa-2 cell line, 4 hours after incubation; read-out: 2D pERK IC50
Please respond with reported IC50 for every item in the list.

Q: Return reported IC50; argument: C=C(F)C(=O)N1CCN(c2nc(OCC3(CN4CCCC4)CC3)nc3c2CO[C@@H](c2cccc4cccc(Cl)c24)C3)C[C@@H]1CC#N (single isomer, unassigned)
Ans: > 100 nM

Q: One more molecule: C=C(F)C(=O)N1CCN(c2nc(OCC34CCCN3CCC4)nc3c2COC(c2cccc4c2CCCC4)C3)C[C@@H]1CC#N (stereo partly drawn)
Ans: 10 to 100 nM

Q: Similarly, C=C(F)C(=O)N1CCN(c2nc(OCC34CCCN3CCC4)nc3c2COC(c2cccc4cccc(Cl)c24)C3)C[C@@H]1CC#N (stereo partly drawn) ?
Ans: 1 to 10 nM

Q: Now the molecule C=CC(=O)N1CCN(c2nc(OC[C@@H]3CCCN3C)nc3c2COC(c2cccc4cccc(Cl)c24)C3)C[C@@H]1CC#N (stereo partly drawn)
Ans: 1 to 10 nM

Q: Also, C=C(F)C(=O)N1CCN(c2nc(OCC34CCCN3CCC4)nc3c2[C@H](C)O[C@H](c2cccc4c2CCCC4)C3)C[C@@H]1CC#N please.
Ans: 10 to 100 nM

Q: Cool, now C=CC(=O)N1CCN(c2nc(OC[C@@H]3CCCN3C)nc3c2CO[C@H](c2cccc4cccc(Cl)c24)C3)C[C@@H]1CC#N
Ans: 0.1 to 1 nM

----------
Test system: phospho-ERK1/2 (Thr202/Tyr204) in MIA PaCa-2 cell line
assay-overview: pERK and ERK Western blot analysis, MIA PaCa-2
Assay type: cell-based
measurement-setup: Homo sapiens; MIA PaCa-2 cell line, 4 hours after incubation; read-out: 2D pERK IC50
pIC50: −log10 of the molar value.
observable: pIC50

Q: Value wanted: pIC50 (phospho-ERK1/2 (Thr202/Tyr204) in MIA PaCa-2 cell line) of entry C=C(F)C(=O)N1CCN(c2nc(OCC34CCCN3CCC4)nc3c2COC(c2cccc4cccc(C)c24)C3)C[C@@H]1CC#N (stereo partly shown)
Ans: 7.00 to 8.00

Q: Check C=C(F)C(=O)N1CCN(c2nc(OCC3(CN4CCCC4)CC3)nc3c2CO[C@H](c2cccc4cccc(Cl)c24)C3)C[C@@H]1CC#N (single isomer, unassigned) too.
Ans: 7.00 to 8.00

Q: Let us now turn to C=C(F)C(=O)N1CCN(c2nc(OCC34CCCN3CCC4)nc3c2CO[C@H](c2cccc4cccc(C)c24)C3)C[C@@H]1CC#N (single isomer, unassigned)
Ans: 7.00 to 8.00

Q: Continue with C=C(F)C(=O)N1CCN(c2nc(OCC34CCCN3CCC4)nc3c2[C@@H](C)O[C@@H](c2cccc4c2CCCC4)C3)C[C@@H]1CC#N
Ans: < 7.00

Q: Also C=CC(=O)N1CCN(c2nc(OC[C@@H]3CCCN3C)nc3c2CO[C@H](c2cccc4ccccc24)C3)C[C@@H]1CC#N , if possible.
Ans: 8.00 to 9.00

Q: Same read-out for C=C(F)C(=O)N1CCN(c2nc(OC[C@@H]3CCCN3C)nc3c2CO[C@@H](c2cccc4cccc(Cl)c24)C3)C[C@@H]1CC#N ?
Ans: < 7.00

Q: And then C=C(F)C(=O)N1CCN(c2nc(OCC34CCCN3CCC4)nc3c2[C@@H](C)O[C@@H](c2cccc4cccc(C)c24)C3)C[C@@H]1CC#N , what is it?
Ans: < 7.00
